- testTarget: HIV-1 protease (Human immunodeficiency virus type 1 group M subtype B (isolate HXB2) (HIV-1), UniProt P04585)
- method: biochemical
- testSettings: enzymatic inhibitory activity
I'd be grateful if you could share measured pKi for these entries.
The meaning of pKi here: minus log10 of the concentration in molar units.

Kindly note the recorded pKi for COc1ccc(S(=O)(=O)N(CC(C)C)C[C@@H](O)[C@H](Cc2ccccc2)NC(=O)O[C@H]2CO[C@H]3OC[C@H](OC)[C@H]32)cc1 [Compound 23c] , which is 11.54

Entry COc1ccc(S(=O)(=O)N(CC(C)C)C[C@@H](O)[C@H](Cc2ccccc2)NC(=O)O[C@H]2CO[C@H]3OC[C@@H](OCc4ccccc4)[C@H]32)cc1 [Compound 23b] — recorded pKi = 10.14

The compound identified as COc1ccc(S(=O)(=O)N(CC(C)C)C[C@@H](O)[C@H](Cc2ccccc2)NC(=O)O[C@H]2CO[C@H]3OC[C@H](OCc4ccccc4)[C@H]32)cc1 [Compound 23d] registered its pKi at 9.52

Memo: COc1ccc(S(=O)(=O)N(CC(C)C)C[C@@H](O)[C@H](Cc2ccccc2)NC(=O)O[C@H]2CO[C@H]3OC[C@@H](OC)[C@H]32)cc1 [Compound 23a] , reported pKi: 10.46
